Below, each of the binders is paired with its reported glycan array binding signal (z-score) value.
Target: Fuc(a1-2)Gal(b1-3)GlcNAc
Assay: glycan array binding signal (z-score within array); higher = stronger binding
Conditions: glycan notation: IUPAC condensed, linker removed
The entries come from a sample that favours the strongest signals as a whole.
OBSERVABLE: glycan array binding signal (z-score)

>>> test_value("AT5G01260(PC)(40) (Arabidopsis thaliana), Q9LFB0 (protein) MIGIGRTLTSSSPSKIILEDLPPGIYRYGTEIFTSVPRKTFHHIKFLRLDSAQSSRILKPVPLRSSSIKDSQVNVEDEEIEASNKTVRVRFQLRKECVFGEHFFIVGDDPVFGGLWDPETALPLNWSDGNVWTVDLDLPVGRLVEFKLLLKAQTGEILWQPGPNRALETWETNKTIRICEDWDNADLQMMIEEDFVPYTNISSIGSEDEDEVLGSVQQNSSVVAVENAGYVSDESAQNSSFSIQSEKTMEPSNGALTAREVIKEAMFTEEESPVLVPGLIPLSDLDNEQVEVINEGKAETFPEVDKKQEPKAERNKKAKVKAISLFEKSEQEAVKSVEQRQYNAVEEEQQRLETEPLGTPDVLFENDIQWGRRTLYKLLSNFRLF")
-0.85
>>> test_value("Nc3LysM-2 (protein) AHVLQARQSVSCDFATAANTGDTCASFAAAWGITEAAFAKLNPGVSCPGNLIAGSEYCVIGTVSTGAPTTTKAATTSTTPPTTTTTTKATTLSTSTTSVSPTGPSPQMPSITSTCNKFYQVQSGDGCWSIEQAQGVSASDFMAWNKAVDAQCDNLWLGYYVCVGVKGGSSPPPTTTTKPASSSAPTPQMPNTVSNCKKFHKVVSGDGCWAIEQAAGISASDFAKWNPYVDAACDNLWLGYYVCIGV")
0.966
>>> test_value("ArathEULS3 (Arabidopsis thaliana), Q945P1 (protein) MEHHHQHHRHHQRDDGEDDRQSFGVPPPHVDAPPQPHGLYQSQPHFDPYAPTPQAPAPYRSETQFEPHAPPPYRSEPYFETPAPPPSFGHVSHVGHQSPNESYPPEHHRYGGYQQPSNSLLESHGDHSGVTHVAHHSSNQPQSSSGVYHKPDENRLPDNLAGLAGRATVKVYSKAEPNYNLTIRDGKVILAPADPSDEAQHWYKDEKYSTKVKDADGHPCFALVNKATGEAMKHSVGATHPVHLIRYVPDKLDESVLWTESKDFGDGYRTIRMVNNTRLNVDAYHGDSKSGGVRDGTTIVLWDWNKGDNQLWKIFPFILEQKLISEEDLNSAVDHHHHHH")
-0.25
>>> test_value("Ficolin B (Rattus norvegicus), P57756 (protein) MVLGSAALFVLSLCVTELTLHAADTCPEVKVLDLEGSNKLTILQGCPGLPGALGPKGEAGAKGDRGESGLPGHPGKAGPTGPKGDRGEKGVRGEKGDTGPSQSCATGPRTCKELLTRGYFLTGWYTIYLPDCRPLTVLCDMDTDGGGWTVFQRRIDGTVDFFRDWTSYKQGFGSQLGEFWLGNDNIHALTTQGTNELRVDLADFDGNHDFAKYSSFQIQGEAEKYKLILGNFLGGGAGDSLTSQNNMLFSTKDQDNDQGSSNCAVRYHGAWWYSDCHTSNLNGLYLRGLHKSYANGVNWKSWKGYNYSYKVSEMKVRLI")
-0.197
